Reported phosphorylation enrichment values follow for various sequences
biological target: Hck (UniProt P08631); experiment: phosphorylation enrichment, bacterial display (enrichment ratio); higher = better substrate or ligand; peptides without Tyr show the background;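 also: 11-residue human phosphosite peptides and single-mutation variants displayed on the E. coli surface, counted by deep sequencing, each peptide's frequency after selection divided by its frequency in the unselected input library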;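 also: frequency after pTyr selection over input frequency; kinase dosed for 20-30% of maximal phosphorylation in three min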
Sequence (P08631 whole entry, looked up): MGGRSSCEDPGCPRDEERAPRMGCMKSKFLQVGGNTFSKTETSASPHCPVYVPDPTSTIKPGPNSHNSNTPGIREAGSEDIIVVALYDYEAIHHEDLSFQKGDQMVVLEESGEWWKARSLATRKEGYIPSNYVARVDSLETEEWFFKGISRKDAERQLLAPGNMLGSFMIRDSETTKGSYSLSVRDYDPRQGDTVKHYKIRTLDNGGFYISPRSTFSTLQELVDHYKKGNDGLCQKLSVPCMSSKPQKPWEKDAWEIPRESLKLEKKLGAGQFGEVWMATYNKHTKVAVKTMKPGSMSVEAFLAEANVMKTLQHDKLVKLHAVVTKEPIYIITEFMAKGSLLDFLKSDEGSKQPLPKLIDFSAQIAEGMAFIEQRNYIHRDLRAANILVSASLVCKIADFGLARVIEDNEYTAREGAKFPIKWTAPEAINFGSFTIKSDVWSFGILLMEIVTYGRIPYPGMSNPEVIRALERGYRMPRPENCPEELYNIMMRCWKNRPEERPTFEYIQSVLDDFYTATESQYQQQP
The answer should be a number; do not append a unit.

Please review the entries below; each comes with its answer.
inputSequence	phosphorylation enrichment
KEAQVYQAFRL [SUCLG2_Y343_K347R]	14
RRNEEYCLLDS [ITK_Y198]	1.1
PLYGEYFTLQI [TP53_Y327_D324Y]	11.6
ALHRPYGCDVE [ABL2_Y80]	0.379
QRHFVYFFSFL [PTEN_Y176_R173H_YF]	1.09

Look up and report measured phosphorylation enrichment for this entry: LLREWYVQDPY [SIX3_Y225_L226V]
0.328

Look up and report measured phosphorylation enrichment for this entry: GSRGKYFSGFR [ATM_Y332_S333F]
0.351

Look up and report measured phosphorylation enrichment for this entry: ETKKQYDSFTF [TMED3_Y85_YF]
0.457

Look up and report measured phosphorylation enrichment for this entry: GSIQQYTFKQE [PRG4_Y1271_I1272T_YF]
0.347
